This section presents pKi values reported for Type-1 angiotensin II receptor (Bos taurus) in the literature.
Remember the convention: pKi equals -log10 of concentration in molar.

Solved cases (5 shown):
molecule: CCCCc1nc(Cl)c(C=O)n1Cc1ccc([C@@H]2CCCC[C@H]2c2nnn[nH]2)cc1 (relative stereo)
pKi: 6.36

molecule: N#Cc1c(C(=O)O)cc(C2CC2)n(Cc2ccc(-c3ccccc3-c3nnn[nH]3)cc2)c1=O
pKi: 7.38

molecule: CCCCc1cc(COC)cc(=O)n1Cc1ccc(-c2ccccc2-c2nnn[nH]2)cc1
pKi: 7.82

molecule: CCCCc1cc(C(=O)OCC)c(C#N)c(=O)n1Cc1ccc(-c2ccccc2-c2nnn[nH]2)cc1
pKi: 6.66

molecule: CCCCc1cc2ccccc2c(=O)n1Cc1ccc(S(=O)(=O)N2CCCC2C(=O)O)cc1Cl (centres unmarked)
pKi: 5.77

Would you kindly share the measured pKi for `CCCCc1nc(Cl)c(C=O)n1Cc1ccc(/C(=C/C(=O)O)c2ccccc2)cc1` ?
6.51

Can you look up the measured pKi of CCCCc1nc(Cl)c(CO)n1Cc1ccc(C(CC(=O)O)c2ccccc2)cc1 (centres unmarked) for me?
6.82
